The reported measurements were obtained from patent US20190218268A1.

molecular target: glucagon receptor (co-transfected in HEK293 cells with a CRE-luciferase reporter); assay: cell-based or functional assay
Square brackets hold non-standard residues; d marks the D form. Ends that are not written are not given here. 3Pal = N[C@@H](Cc1cccnc1)C(=O)O; 4Pal = N[C@@H](Cc1ccncc1)C(=O)O; Aib = CC(C)(N)C(=O)O
READOUT KIND: EC50 [nM] (SDV), luciferase-based glucagon receptor cAMP reporter assay (nM)

Some solved entries appear below for comparison.
[
  {
    "BINDER": "HSQGT[3Pal]TSD[3Pal]SK[3Pal]LD[Aib]RRAQD[3Pal]VQWLMNT [Glucagon analog 11]",
    "RESULT VALUE": 2.33
  },
  {
    "BINDER": "HSQGTFTSD[3Pal]SK[3Pal]LD[Aib]RRAQDFVQWLMNT [Glucagon analog 7]",
    "RESULT VALUE": 0.0359
  }
]

A = HSQGTFTSDYSK[4Pal]LD[Aib]RRAQDFVQWLMNT [Glucagon analog 6]
B = HSQGT[3Pal]TSD[3Pal]SK[3Pal]LD[Aib]RRAQDFVQWLMNT [Glucagon analog 9]
Challenge: Returns the identifier with the smallest measured EC50 [nM] (SDV), luciferase-based glucagon receptor cAMP reporter assay among A and B . Please respond with the label that marks your chosen entry.
Response given: A

A = HSQGTFTSDYSK[3Pal]LD[Aib]RRAQDFVQWLMNT [Glucagon analog 5]
B = HSQGT[4Pal]TSD[4Pal]SK[4Pal]LD[Aib]RRAQDFVQWLMNT [Glucagon analog 10]
Challenge: # query: argmin of EC50 [nM] (SDV), luciferase-based glucagon receptor cAMP reporter assay over A and B Respond using the label that marks the chosen record.
Response given: A
(A: 0.0379 nM, B: 0.0843 nM)
